molecular target: T1, factor H binding protein (fHbp) variant 2.16, recombinant (Neisseria meningitidis 961-5945, UniProt Q6VS19, strain); test: SPR; conditions: both partners purified
T1 construct: also called fHbp v2.16; fHbp v2; source: E. coli BL21(DE3), purified (Ni-NTA, SEC when necessary)
Reported pKd values for the following binders.
pKd is defined as minus the log10 of a concentration measured in mol/L.

// known answers, use as guide
{"BINDER": "human anti-fHbp mAb 1D1 (antibody, V domains shown, IgG1; source: Expi293, transient transfection, purified (protein G Sepharose)) VH: QVQLVGSGGGLVKPGGSLRLSCAASGFTFSSYTMNWVRQAPGKGLEWVSSISSSSGYIYYADSLKGRFTISRDDAKNSLFLQMNSLRAEDTAVYFCARDKVLPAPPGFYGLDVWGPGTTVTVSS VL: QSVVTQPPSVSAAPGQKVTISCSGSSSNIEDNFVSWYQQLPGTAPKLLIYDNNQRPSGIPDRFSGSKSGTSATLGITGLQTGDEADYYCATWDNSLSARVFGGGTKLTVL", "pKd": 8.58}
{"BINDER": "human anti-fHbp mAb 4B3 (IgG1) (antibody, V domains shown, IgG1; source: Expi293, transient transfection, purified (protein G Sepharose)) VH: QVQLVQSGGGLVKPGGSLRLSCAASGFPFSSYYMSWIRQAPGKGLEWVSDINNSGNVKEYADFVKGRLTISRDNVKNSMYLHMNSLRVEDTAVYYCARNRGRFDVWGQGTLVTVSA VL: EIVMTQSPGTLSLSPGETATLSCRASQMISSPFLAWYQQRRGQAPRLLIYGASTRATDTPDRFRGSGSGTDFILTISRLEPEDFAVYYCQYYDDSPFTFGQGTKLEIK", "pKd": 10.54}
{"BINDER": "human anti-fHbp mAb 1E10 (antibody, V domains shown, IgG1; source: Expi293, transient transfection, purified (protein G Sepharose)) VH: QVQLVESGGDLVKPGGSLRLSCVASGFTFSSYTMNWVRQAPGKGLEWVSSITSSSSFTYYADSVKGRFIISRDNAKNSLSLQMNNLRVEDTATYYCARRKDSSDYDWYYYYGMDVWGLGTTVTVSS VL: QSVVTQPPSVSAAPGQKVTISCSGSSSNIGDNYMSWYQQIPGTAPKLLIFDNDQRPSGIPDRFSASKSGTSATLDITGFQTGDEADYYCGTWDSGLSAPVFGGGTKLTVL", "pKd": 8.85}
{"BINDER": "human anti-fHbp mAb 3B7 (antibody, V domains shown, source: Expi293, transient transfection, purified (protein G Sepharose)) VH: EVQLVQSGAEVKKPGSSVKVSCKASGDTFSNYPISWVRQAPGQGLEWMGGIIPIFGTANYAQKFQGRVTITADESTSTPYMELSSLRSEDTAVYYCARGDTAMAPFDYWGQGTLVTVSS VL: SYVLTQPPSVSVAPGKTARITCGGNSIGSKSVHWYQQKPGQAPVLVIYYDSDRPSGVPERISGSNSGNTATLTISRVEAGDEADYYCQVWDSSSDSWVFGGGTKLTVL", "pKd": 9.26}
{"BINDER": "human anti-fHbp mAb 2G1 (antibody, V domains shown, IgG1; source: Expi293, transient transfection, purified (protein G Sepharose)) VH: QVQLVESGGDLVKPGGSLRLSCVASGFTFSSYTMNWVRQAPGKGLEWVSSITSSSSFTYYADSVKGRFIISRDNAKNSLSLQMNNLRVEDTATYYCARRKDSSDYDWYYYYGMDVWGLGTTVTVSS VL: QSVLTQPPSVSAAPGQKVTISCSGSSSNIGDNYMSWYQQIPGTAPKLLIFDNDQRPSGIPDRFSASKSGTSATLDITGFQTGDEADYYCGTWDSGLSAPVFGGGTKLTVL", "pKd": 8.77}
{"BINDER": "human anti-fHbp mAb 5F12 (antibody, V domains shown, IgG1; source: Expi293, transient transfection, purified (protein G Sepharose)) VH: EVQLVESGGDLVKPGGSLRLSCAASGFTFSNYTMNWVRQAPGKGLEWVSSITSSSSFKYYADSVKGRFTISRDNAKNSVFLQMNSLRAEDTAIYYCARRIDSSDQDWFYYYGMDVWGLGTTVTVSS VL: QSVLTQPPSVSAAPGQRVTISCSGSSSNIGDNYISWYQQLPGTAPKLLIYDNDQRPSGTPDRFSASKSGTSATLGVTGLQTGDEADYYCGTWDSSLNAPVFGSGTKVTVL", "pKd": 8.56}

**Q:** In one line, give reported pKd of the entry human anti-fHbp mAb 3G7 (antibody, V domains shown, IgG1; source: Expi293, transient transfection, purified (protein G Sepharose)) VH: EVQLLQSGGGLVKPGGSLRLSCAASGFPFSSYYMSWIRQAPGKGLEWVSDINNSGNVKEYADFVKGRLTISRDNVKNSMYLHMNSLRVEDTAVYYCARNRGRFDVWGQGTLVTVSA VL: EIVLTQSPGTLSLSPGETATLSCRASQMISSPFLAWYQQRRGQAPRLLIYGASTRATDTPDRFRGSGSGTDFILTISRLEPEDFAVYYCQYYDDSPFTFGQGTKLEIK .
**A:** 10.28

**Q:** In one line, give reported pKd of the entry human anti-fHbp mAb 4F9 (antibody, V domains shown, IgG1; source: Expi293, transient transfection, purified (protein G Sepharose)) VH: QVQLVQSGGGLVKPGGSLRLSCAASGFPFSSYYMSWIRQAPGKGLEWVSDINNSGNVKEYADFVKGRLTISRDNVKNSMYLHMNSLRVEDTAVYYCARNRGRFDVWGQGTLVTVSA VL: EIVMTQSPGTLSLSPGETATLSCRASQMISSPFLAWYQQRRGQAPRLLIYGASTRATDTPDRFRGSGSGTDFILTISRLEPEDFAVYYCQHYDDSPFTFGQGTKLEIK .
**A:** 10.55

**Q:** In one line, give reported pKd of the entry human anti-fHbp mAb 3F1 (antibody, V domains shown, IgG1; source: Expi293, transient transfection, purified (protein G Sepharose)) VH: EVHLVESGGGLVKPGGSLRLSCAASGFTFSSYTMNWVRQAPGKGLEWVSSISSSSGYIYYADSLKGRFTISRDNAKNSLFLQMNSLRAEDTAVYFCARDKVLPAPPGFYGLDVWGPGTTVTVSS VL: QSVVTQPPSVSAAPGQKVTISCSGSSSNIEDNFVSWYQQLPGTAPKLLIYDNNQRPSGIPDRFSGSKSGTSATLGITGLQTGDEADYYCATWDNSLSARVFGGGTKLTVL .
**A:** 7.95

**Q:** In one line, give reported pKd of the entry human anti-fHbp mAb 2C8 (antibody, V domains shown, IgG1; source: Expi293, transient transfection, purified (protein G Sepharose)) VH: QVQLVQSGAEVKKPGSSVKVSCKASGGTVINYPISWVRQVPGQGLEWMGRLVPLFGTPNYGQKFQGRITITADKSTSAAYMELIGLKSEDTAVYYCARGDTAMAPFDYWGHGTLVTVSS VL: QLVLTQPPSVSVAPGKTATITCGGNNVGGKTVHWYQQKPGQAPVLVMSYDSDRPSGIPERFSGSNSGNTATLTISRVEAEDEADYYCQVWHGNDDHWVFGGGTKLTVL .
**A:** 10.28
